- Tested on: LOX IMVI
- Measurement Notes: NCI tumour cell line growth inhibition, 48 h
Calls of active or inactive are those of the source. Rule as the data show it: active = GI50 up to about 1.1 µM and inactive = higher.
The reply should be one of these categories: active, inactive

[
  {
    "Query Smiles": "O=C1O/C(=C\\c2ccccc2)N(c2ccccc2)C1=O",
    "Category": "inactive"
  },
  {
    "Query Smiles": "C=CCOCCCC(=O)C(=[N+]=[N-])C(=O)OC",
    "Category": "inactive"
  },
  {
    "Query Smiles": "O=C(N/N=C\\C(F)(F)F)c1ccncc1",
    "Category": "inactive"
  },
  {
    "Query Smiles": "Cc1cc(C)c2c(c1)C(=O)/C(=C/c1ccccc1C(=O)O)C2",
    "Category": "inactive"
  }
]

Qu. Test call, this compound: `O=C(CCCN1CCC2(CC1)CC(=O)N(N1CCOCC1)C2=O)c1ccccc1`
Ans. inactive

Qu. Could you kindly confirm the outcome this assay logged for `CCN(CC)CC(C)(C)C(=O)/C=C/c1cccc(/C=C/C(=O)C(C)(C)CN(CC)CC)c1` ?
Ans. active

Qu. Hello, I am checking results. What call was entered for `O=C1CCCC/C1=C\c1ccc(Br)cc1` ?
Ans. inactive

Qu. Given `C=C(C)[C@@H]1CCc2c(c(C)cc(O)c(=O)c2O)C1` , state the outcome it received in this test.
Ans. active

====

- System: SF-295
- Measurement Notes: NCI tumour cell line growth inhibition, 48 h
Active and inactive are the calls of the source. No stated cut-off is given here; in the data, active = GI50 up to about 1.1 µM and inactive = higher.
Output constraint: value belongs to Yes = active, No = inactive

[
  {
    "Compound": "O=[N+]([O-])c1ccc(N/N=C(\\c2ccccc2)c2ccccn2)nc1",
    "Category": "No"
  },
  {
    "Compound": "COC(=O)C1CN=CN1CCc1ccccc1 (stereo not given)",
    "Category": "No"
  },
  {
    "Compound": "CC(=O)OC(C)(C)/N=N/c1ccc(Br)cc1",
    "Category": "Yes"
  }
]

Qu. Entry COc1cc2c(c(OC)c1OC)-c1ccc(OC)c(=O)cc1C(NC(=O)CCCCCNc1ccc(N=[N+]=[N-])cc1[N+](=O)[O-])CC2 (stereo not given) : call = ?
Ans. Yes

Qu. For `S=C(NCc1ccccc1)c1nc[nH]c1C(=S)NCc1ccccc1` , what call appears in the results of this test?
Ans. No

Qu. I'd appreciate the recorded outcome for `O=C1NC(=S)NC(=O)C1C(c1ccc(Cl)cc1)C1C(=O)NC(=S)NC1=O.c1ccncc1` from this test.
Ans. No

Qu. For O=C(c1ccccc1)N1CCC(Nc2cccnc2)O1 (stereo not given) , which call appears in the assay record?
Ans. No

Qu. Could you check what this test reported for O=C(O)C1C2C=CC(C2)C1c1ccccc1 (stereo not given) ?
Ans. No

Qu. Could you check what this test reported for `O=c1c2cc(Br)cc(Br)c2nc(CCCl)n1CCO` ?
Ans. No

Qu. I'd appreciate the recorded outcome for `CN(C)c1ccc(C=C2N=C(c3ccccc3)N(c3cc(C(=O)c4ccccc4)ccc3N3C(=O)/C(=C/c4ccc(N(C)C)cc4)N=C3c3ccccc3)C2=O)cc1` from this test.
Ans. No

====

- Tested on: HOP-18
- Measurement Notes: NCI tumour cell line growth inhibition, 48 h
Activity calls are given as the source filed them. Rule as the data show it: active = GI50 up to about 1.1 µM and inactive = higher.
Measured Metric: GI50

Worked examples follow.
[
  {
    "Compound": "C/C(=N\\NC(C)(C)C)c1sc(-c2nc(C)c(/C(C)=N/NC(C)(C)C)s2)nc1C",
    "Result": "> 100 µM (inactive)"
  },
  {
    "Compound": "COc1ccc(C(=O)O/N=C2/CCCCC2CN(C)C)cc1 (stereo not given)",
    "Result": "> 100 µM (inactive)"
  },
  {
    "Compound": "CCCCCCCCCCCCCCCCOP(=O)(O)Oc1ccc(/C=C\\c2ccc(OP(=O)(O)OCCCCCCCCCCCCCCCC)cc2)cc1",
    "Result": "70.3 µM (inactive)"
  },
  {
    "Compound": "O=c1[nH]cnc2c1nnn2C1C=C(CO)C(O)C1O (stereo not given)",
    "Result": "> 100 µM (inactive)"
  }
]

Now for the compound whose GI50 we want.
Qu. Please give the measured GI50 for this compound: COc1cc2c(cc1OC)[C@H]1C(COC(=O)c3ccccc3)CS/C(=N/c3ccccc3)N1CC2 (stereo not given in full)
Ans. > 100 µM (inactive)

====

- Tested on: HCC 2998
- Measurement Notes: NCI tumour cell line growth inhibition, 48 h
The source made the active and inactive calls. No stated cut-off is given here; in the data, active = GI50 up to about 1.1 µM and inactive = higher.
Permitted responses: 1 (yes) (active), 0 (no) (inactive)

Below, 3 molecules whose answers are already recorded.
[
  {
    "Molecule": "O=C(Nc1ccc2ccccc2c1)Nn1cnnc1",
    "Target System": "HCC 2998",
    "Category": "0 (no)"
  },
  {
    "Molecule": "N#Cc1cc([N+](=O)[O-])ccc1NC(=O)C(=O)Nc1n[nH]c(N)n1",
    "Target System": "HCC 2998",
    "Category": "0 (no)"
  },
  {
    "Molecule": "CN1C(=O)[C@](C)(Cc2ccc(F)cc2)N(C(=O)OC(C)(C)C)[C@@H]1C(C)(C)C",
    "Target System": "HCC 2998",
    "Category": "0 (no)"
  }
]

Qu. Kindly provide the recorded test outcome for the following molecule: O=C1c2ccccc2CCC1C(O)(C(F)(F)F)C(F)(F)F (stereo unspecified)
Ans. 0 (no)

Qu. Outcome? `COc1cc2c(/C=C3/C(=O)N(C)c4ccccc43)c(Cl)[nH]c2cc1C`
Ans. 1 (yes)

====

- Test system: OVCAR-4
- Measurement Notes: NCI tumour cell line growth inhibition, 48 h
Active and inactive are the calls of the source. Cut-off read from the data, not from the text of the source: active = GI50 up to about 1.1 µM and inactive = higher.
Measured Metric: GI50

[
  {
    "Molecule": "COc1ccc(-c2cc(-c3ccccc3)c(C#N)c(=O)n2C2OC(CO)C(O)C(O)C2O)cc1 (stereo not drawn)",
    "GI50": "> 100 µM (inactive)"
  },
  {
    "Molecule": "N#Cc1nc(Nc2cccc3ccccc23)sc1N",
    "GI50": "57.7 µM (inactive)"
  },
  {
    "Molecule": "Cn1c(-c2cccs2)cc(-c2cccs2)c1-c1ccsc1",
    "GI50": "> 100 µM (inactive)"
  },
  {
    "Molecule": "COc1ccc(N2C(=O)c3cc([N+](=O)[O-])cnc3S2(=O)=O)cc1",
    "GI50": "> 100 µM (inactive)"
  },
  {
    "Molecule": "O=S(=O)(c1ccccc1)c1ccc(-c2nc(-c3ccc4c(c3)Sc3ccccc3S4)cs2)cc1",
    "GI50": "> 100 µM (inactive)"
  }
]

Respectfully, I request GI50 for each entry included below.
1. O=C1C2C3C=CC(C2C(=O)N1COP(=O)(O)O)C1C2C(=O)N(COP(=O)(O)O)C(=O)C2C31 (stereo not drawn)
2. CN(C)CCCNC(=O)c1cc(NC(=O)CCCn2c3ccccc3c3ccccc32)cn1C
3. CCN1/C(=C/c2ccc3ccccc3[n+]2CC)C=Cc2ccccc21

Ans.
1: > 100 µM (inactive); 2: 43.1 µM (inactive); 3: 0.617 µM (active)

====

- Tested on: UO-31
- Measurement Notes: NCI tumour cell line growth inhibition, 48 h
Activity calls are given as the source filed them. Rule as the data show it: active = GI50 up to about 1.1 µM and inactive = higher.
Respond using exactly one of the listed classes: active, inactive

[
  {
    "Compound": "O=C1C=C(Nc2ccccc2C(=O)CC(=O)C(=O)Nc2ccc(Cl)cc2)c2ccccc2C1=O",
    "Category": "inactive"
  },
  {
    "Compound": "COc1ccc(/C=C/CN(C)CCc2ccccc2)cc1OC",
    "Category": "inactive"
  },
  {
    "Compound": "[N-]=[N+]=Nc1cc(=O)[nH]c2ccccc12",
    "Category": "inactive"
  },
  {
    "Compound": "O=C1N[C@@H]([C@H]2CC[C@H](Cl)CN2)C(=O)N[C@H]1[C@H]1CC[C@H](Cl)CN1",
    "Category": "active"
  },
  {
    "Compound": "COC(=O)[C@H](C)NC(=O)[C@H](CSC)N1C(=O)N[C@@H](C(C)C)C1=O",
    "Category": "inactive"
  }
]

Qu. What did the test return for `Nc1ccc(C(=O)N/C(=C\c2cccc([N+](=O)[O-])c2)c2nc3c(O)nc(S)nc3[nH]2)cc1` ?
Ans. inactive

Qu. Short answer needed: outcome of this test for `CN(C)S(=O)(=O)Nc1ccccn1` ?
Ans. inactive

Qu. Returns: the outcome recorded for Nc1ncnc2c1nc(-c1ccccc1)n2C1OC(CO)C(O)C1O (stereo unspecified) in this assay.
Ans. inactive

Qu. Per the records of this test, what outcome belongs to `CN(C)CCC(CCN(C)C)=NO` ?
Ans. inactive

Qu. Entry `CN(C)CN(C)c1nc(N(C)C)nc(N(C)C)n1` : call = ?
Ans. inactive
